# measurement.protocol: blocking HSF1-driven luciferase expression – cell-based, NIH3T3, luminescence, primary screen (AID 2098);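 also: luciferase reports HSF-1 transcriptional activity via heat shock element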
# assay.conditions: NIH3T3-HGL HSE-luciferase, MG132-induced, luminescence 8 h; screened at 7.5 µM (by protocol)
The whole screen tested about 300,000 compounds, of which about 2,300 (0.77%) were called active.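 The calls were made as follows: active = more than half of replicate wells show activity change below -50%, luminescence cut by over half; inconclusive = some wells, but at most half, below -50%; inactive = no replicate well below -50%.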 What follows is part of a selection rich in actives, with near analogues and random picks from the rest.
One label from this list, please: active, inactive

1. O=C(Nc1ccnn1C1CCN(Cc2cccc(OCCO)c2)CC1)C1CCCC1	inactive

Task: Hi, do you know how COc1ccccc1C(=O)NCCC(=O)NCC(c1ccco1)N1CCCCC1 (stereo unspecified) came out in this test?
Result: inactive

Task: Hi, do you know how Cc1sc2nc(CSCC(=O)NC3CCCCC3)[nH]c(=O)c2c1C came out in this test?
Result: inactive

Task: Hi, do you know how COc1cc(SC)ccc1C(=O)Nc1cc(C)ccn1 came out in this test?
Result: inactive

Task: Hi, do you know how Cc1nn(C)c(Cl)c1CN1CCC(n2nccc2NC(=O)C2CCCC2)CC1 came out in this test?
Result: active

The origin of these recorded values is PubChem BioAssay AID2098.
